Sourced from patent US20070276011A1

- TEST_SYSTEM: recombinant human PAI-1 (Homo sapiens, UniProt P05121)
- Sequence (P05121 24-402): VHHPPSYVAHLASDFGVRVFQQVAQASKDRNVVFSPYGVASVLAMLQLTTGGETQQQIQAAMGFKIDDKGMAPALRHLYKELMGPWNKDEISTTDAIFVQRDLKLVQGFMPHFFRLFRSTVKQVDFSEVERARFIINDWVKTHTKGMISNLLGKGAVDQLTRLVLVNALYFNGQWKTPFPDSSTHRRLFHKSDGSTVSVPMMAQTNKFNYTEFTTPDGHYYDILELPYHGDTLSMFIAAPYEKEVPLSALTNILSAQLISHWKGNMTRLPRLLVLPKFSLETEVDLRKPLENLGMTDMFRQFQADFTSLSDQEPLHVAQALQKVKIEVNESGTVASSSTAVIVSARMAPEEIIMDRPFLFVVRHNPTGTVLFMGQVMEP
- ASSAY_EXPLANATION: PAI-1 inhibitory activity, Test Method A (tPA fluorogenic substrate, Tris buffer pH8.0, 37 C)
- Type: biochemical
- EXPERIMENTAL_CONTEXT: 25 μM test compound; Test Method A
Examples of compounds with documented Inhibitory Ratio at 25 μM (%) follow.
READOUT_TYPE: Inhibitory Ratio at 25 μM (%)

O=C(Nc1ccc(O)c(O)c1)c1cc(C=C2SC(=O)N(Cc3cc(C(F)(F)F)cc(C(F)(F)F)c3)C2=O)ccc1O
91
O=C(Nc1ccc(O)c(O)c1)c1cccc(C=C2SC(=O)N(Cc3ccc(Cl)c(Cl)c3)C2=O)c1
65
CCOC1=NN(c2ccc([N+](=O)[O-])cc2)C(=O)C1=Cc1c(O)ccc2ccccc12
96
COC(=O)c1ccc(NC(=O)c2cc(C=C3SC(=O)N(Cc4ccc(Cl)c(Cl)c4)C3=O)ccc2O)cc1
73
